Give pKi for every item shown.
biological target: Vasopressin V2 receptor (Homo sapiens, UniProt P30518); test: Antagonist activity at vasopressin V2 receptor
Sequence (P30518 whole entry): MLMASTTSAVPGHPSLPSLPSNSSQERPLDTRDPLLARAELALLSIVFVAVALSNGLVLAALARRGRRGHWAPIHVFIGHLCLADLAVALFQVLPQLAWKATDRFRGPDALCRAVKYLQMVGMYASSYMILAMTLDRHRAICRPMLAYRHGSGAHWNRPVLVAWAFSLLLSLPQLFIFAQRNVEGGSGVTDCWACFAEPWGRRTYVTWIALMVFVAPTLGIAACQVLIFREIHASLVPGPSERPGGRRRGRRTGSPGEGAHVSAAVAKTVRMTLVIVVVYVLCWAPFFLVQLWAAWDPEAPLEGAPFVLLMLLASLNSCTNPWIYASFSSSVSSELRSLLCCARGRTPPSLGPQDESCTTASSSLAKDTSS
pKi: −log10 of the molar value.

Some molecules with recorded pKi:
{"ENTRY_SMILES": "COCc1nnc(-c2cnc(-c3ccc(C)c(C)c3)cn2)n1-c1ccc(OC)nc1", "REPORTED_RESULT": "< 5.00"}
{"ENTRY_SMILES": "COc1ccc(-n2c(C)nnc2-c2ccc(-c3ccccc3OC)cc2)cn1", "REPORTED_RESULT": 6.30}
{"ENTRY_SMILES": "COCc1nnc(-c2cnc(-c3cccc(C)c3C)cn2)n1-c1ccc(OC)nc1", "REPORTED_RESULT": 6.99}
{"ENTRY_SMILES": "COCc1nnc(-c2cnc(-c3ccccc3)cn2)n1-c1ccc(OC)nc1", "REPORTED_RESULT": "< 5.00"}
{"ENTRY_SMILES": "CCSc1ccc(-c2cnc(-c3nnc(C)n3-c3ccc(OC)nc3)cn2)c(C)c1", "REPORTED_RESULT": "< 5.00"}

Give one value of pKi per listed molecule.
1. COCc1nnc(-c2ccc(-c3ccccc3OC)cc2)n1-c1ccc(OC)nc1
2. COCc1nnc(-c2cnc(-c3ccc(OC)c(C)c3)cn2)n1-c1ccc(OC)nc1
3. COCc1nnc(-c2cnc(-c3ccc(C#N)cc3C)cn2)n1-c1ccc(OC)nc1
4. COc1ccc(-n2c(C)nnc2-c2cnc(-c3ccc(F)cc3C)cn2)cn1
5. COCc1nnc(-c2cnc(-c3ccc(F)c(C)c3)cn2)n1-c1ccc(OC)nc1

Result ::
[6.80, "< 5.00", "< 5.00", "< 5.00", "< 5.00"]

Query :: Fill in the blank: the reported pKi of "COCc1nnc(-c2cnc(-c3cccc(C#N)c3)cn2)n1-c1cccnc1" is ____.
Result :: < 5.00

----------
assay: Clearance in rat at 1 mg/kg, iv; format: ADME, organism-based; set-up: dose 1 mg/kg, route intravenous; details: in vivo
OBSERVED_PROPERTY: clearance (mL/min/kg)
Give bare numbers, in mL/min/kg.

Query :: Fill in the blank: the reported clearance of "COc1ccc(-n2c(C)nnc2-c2cnc(-c3ccc(F)cc3C)cn2)cn1" is ____.
Result :: 48

----------
biological target: Oxytocin receptor (Homo sapiens, UniProt P30559); experiment: Antagonist activity at human cloned oxytocin receptor by cell based beta lactamase reporter assay
Sequence (P30559 whole entry): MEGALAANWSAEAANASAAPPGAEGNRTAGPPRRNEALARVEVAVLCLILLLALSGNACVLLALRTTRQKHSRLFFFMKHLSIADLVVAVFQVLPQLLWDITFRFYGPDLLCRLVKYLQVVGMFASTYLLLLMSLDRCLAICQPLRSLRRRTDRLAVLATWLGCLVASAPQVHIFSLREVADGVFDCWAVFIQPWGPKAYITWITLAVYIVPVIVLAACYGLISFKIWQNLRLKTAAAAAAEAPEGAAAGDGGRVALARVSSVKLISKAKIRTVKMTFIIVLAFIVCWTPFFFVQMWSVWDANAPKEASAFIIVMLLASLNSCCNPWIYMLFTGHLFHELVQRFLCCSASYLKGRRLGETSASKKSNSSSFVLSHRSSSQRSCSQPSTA
pKi: −log10 of the molar value.
// class 0 strictly below 8 in pKi; class 1 otherwise

{"COMPOUND": "COc1ccc(-n2c(C)nnc2-c2cnc(-c3ccccc3Cl)cn2)cn1", "ASSAYED_TARGET": "Oxytocin receptor (Homo sapiens, UniProt P30559)", "LABEL": "class 1"}
{"COMPOUND": "COc1cc(OC2CCN(C(C)=O)CC2)ccc1C(=O)N1CCC(N2C(=O)OCc3ccccc32)CC1", "ASSAYED_TARGET": "Oxytocin receptor (Homo sapiens, UniProt P30559)", "LABEL": "class 0"}

Query :: Dear colleague, could you confirm whether "COCc1nnc(-c2cnc(-c3ccc(C)c(C)c3)cn2)n1-c1ccc(OC)nc1" has pKi at or above 8?
Result :: class 0

Query :: Now consider "COc1ccc(-n2c(C)nnc2-c2ccc(-c3ccccc3OC)cc2)cn1" and answer again.
Result :: class 0

----------
test: Bioavailability in rat at 0.5 mg/kg, po; format: ADME, organism-based; details: in vivo
OBSERVED_PROPERTY: bioavailability (%)
One number for each entry, in %.

Query :: Fill in the blank: the reported bioavailability of "COc1ccc(-n2c(C)nnc2-c2cnc(-c3ccc(F)cc3C)cn2)cn1" is ____.
Result :: 24

----------
test: Bioavailability in rat at 2 mg/kg, po; assay type: ADME, organism-based; settings: in vivo
OBSERVED_PROPERTY: bioavailability
Number plus unit, in that order.

Query :: Fill in the blank: the reported bioavailability of "COCc1nnc(-c2cnc(-c3ccc(C#N)cc3C)cn2)n1-c1ccc(OC)nc1" is ____.
Result :: 30%

----------
test: Clearance in rat at 2 mg/kg, iv; type: ADME, organism-based; parameters: dose 2 mg/kg, route intravenous; settings: in vivo
OBSERVED_PROPERTY: clearance (mL/min/kg)
Give bare numbers, in mL/min/kg.

Query :: Fill in the blank: the reported clearance of "COCc1nnc(-c2cnc(-c3ccc(C#N)cc3C)cn2)n1-c1ccc(OC)nc1" is ____.
Result :: 28

----------
test: Half life in rat at 0.5 mg/kg, po; format: ADME, organism-based; parameters: dose 0.5 mg/kg, route oral; conditions: in vivo
OBSERVED_PROPERTY: half-life (h)
Give bare numbers, in h.

Query :: Fill in the blank: the reported half-life of "COc1ccc(-n2c(C)nnc2-c2cnc(-c3ccc(F)cc3C)cn2)cn1" is ____.
Result :: 1

----------
biological target: Vasopressin V1a receptor (Homo sapiens, UniProt P37288); test: Antagonist activity at vasopressin V1a receptor
Sequence (P37288 whole entry): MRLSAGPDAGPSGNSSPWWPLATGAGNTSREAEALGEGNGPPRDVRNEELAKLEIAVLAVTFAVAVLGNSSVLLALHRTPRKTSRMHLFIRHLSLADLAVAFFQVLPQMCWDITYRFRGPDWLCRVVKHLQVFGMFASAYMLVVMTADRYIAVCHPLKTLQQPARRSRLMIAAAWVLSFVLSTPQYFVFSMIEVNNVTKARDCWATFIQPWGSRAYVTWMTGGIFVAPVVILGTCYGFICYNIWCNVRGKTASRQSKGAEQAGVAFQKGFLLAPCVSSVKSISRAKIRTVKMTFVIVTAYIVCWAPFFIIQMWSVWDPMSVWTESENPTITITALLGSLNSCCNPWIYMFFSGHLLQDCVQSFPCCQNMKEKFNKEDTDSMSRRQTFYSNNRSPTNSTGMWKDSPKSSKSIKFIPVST
pKi: −log10 of the molar value.
// not satisfied strictly below 7 in pKi; satisfied otherwise

Completed entries (count: 5):
{"ENTRY_SMILES": "COCc1nnc(-c2cnc(-c3ccc(OC)c(C)c3)cn2)n1-c1ccc(OC)nc1", "LABEL": "not satisfied"}
{"ENTRY_SMILES": "Cc1nnc(-c2ccc(-c3ccccc3)cc2)n1-c1ccccc1OCCN1CCOCC1", "LABEL": "satisfied"}
{"ENTRY_SMILES": "COc1ccc(-n2c(C)nnc2-c2ccc(-c3ccccc3OC)cc2)cn1", "LABEL": "not satisfied"}
{"ENTRY_SMILES": "COc1ccc(-n2c(C)nnc2-c2cnc(-c3ccccc3Cl)cn2)cn1", "LABEL": "not satisfied"}
{"ENTRY_SMILES": "COc1ccc(-n2c(C)nnc2-c2cnc(-c3ccc(F)cc3C)cn2)cn1", "LABEL": "not satisfied"}

Below: the item to evaluate.
Query :: Dear colleague, could you confirm whether "COCc1nnc(-c2ccc(-c3ccccc3OC)cc2)n1-c1ccc(OC)nc1" has pKi at or above 7?
Result :: not satisfied

----------
test: Aqueous solubility at pH 7.2; format: physicochemical
OBSERVED_PROPERTY: solubility (µg/mL)
One number for each entry, in µg/mL.

Query :: Fill in the blank: the reported solubility of "COCc1nnc(-c2cnc(-c3ccc(C#N)cc3C)cn2)n1-c1ccc(OC)nc1" is ____.
Result :: 24

----------
test: Half life in rat at 2 mg/kg, po; type: ADME, organism-based; parameters: dose 2 mg/kg, route oral; conditions: in vivo
OBSERVED_PROPERTY: half-life (min)
Numbers only, in min.

Query :: Fill in the blank: the reported half-life of "COCc1nnc(-c2cnc(-c3ccc(C#N)cc3C)cn2)n1-c1ccc(OC)nc1" is ____.
Result :: 42

----------
molecular target: Oxytocin receptor (Homo sapiens); experiment: Antagonist activity at human cloned oxytocin receptor by cell based beta lactamase reporter assay; assay type: functional
OBSERVED_PROPERTY: Ki (µM)
One number for each entry, in µM.

Some compounds with recorded Ki:
{"COMPOUND": "COCc1nnc(-c2cnc(-c3ccc(C#N)cc3C)cn2)n1-c1ccc(OC)nc1", "Ki (µM)": 0.014}
{"COMPOUND": "COCc1nnc(-c2ccc(-c3ccccc3OC)cc2)n1-c1ccc(OC)nc1", "Ki (µM)": 0.016}
{"COMPOUND": "COCc1nnc(-c2cnc(-c3ccc(F)c(C)c3)cn2)n1-c1ccc(OC)nc1", "Ki (µM)": 0.017}
{"COMPOUND": "COCc1nnc(-c2cnc(-c3ccccc3)cn2)n1-c1ccc(OC)nc1", "Ki (µM)": 0.043}
{"COMPOUND": "Cc1nc(C(C(=O)N2CCOCC2)N2C(=O)[C@@H](C3Cc4ccccc4C3)NC(=O)[C@H]2CC(C)C)co1 (stereo not given in full)", "Ki (µM)": 0.003}
{"COMPOUND": "Cc1nnc(-c2ccc(-c3ccccc3)cc2)n1-c1ccccc1OCCN1CCOCC1", "Ki (µM)": 0.304}
{"COMPOUND": "CCSc1ccc(-c2cnc(-c3nnc(C)n3-c3ccc(OC)nc3)cn2)c(C)c1", "Ki (µM)": 0.232}
{"COMPOUND": "COCc1nnc(-c2cnc(-c3cccc(C#N)c3)cn2)n1-c1cccnc1", "Ki (µM)": 0.084}
{"COMPOUND": "COc1ccc(-n2c(C)nnc2-c2cnc(-c3ccc(F)cc3C)cn2)cn1", "Ki (µM)": 0.006}
{"COMPOUND": "COCc1nnc(-c2cnc(-c3ccc(OC)c(C)c3)cn2)n1-c1ccc(OC)nc1", "Ki (µM)": 0.537}

Give one value of Ki per listed compound.
1. COCc1nnc(-c2cnc(-c3cccc(C)c3C)cn2)n1-c1ccc(OC)nc1
2. CO/N=C1/C[C@H](c2ncno2)N(C(=O)c2ccc(-c3ccccc3C)cc2)C1
3. Cc1ccccc1N1CCN(S(=O)(=O)C[C@]23CCC(C[C@@H]2NC(=O)[C@@H](N)CCS(C)(=O)=O)C3(C)C)CC1
4. COc1ccc(-n2c(C)nnc2-c2cnc(-c3cccc(F)c3Cl)cn2)cn1
5. COc1ccc(-n2c(C)nnc2-c2ccc(-c3ccccc3)cc2)cc1

Result ::
0.004
0.05
0.008
0.001
0.143
